Recorded pKd values for a group of binders are listed next.
Biological target: MAST1, Q9Y2H9
Sequence (Q9Y2H9 962-1065): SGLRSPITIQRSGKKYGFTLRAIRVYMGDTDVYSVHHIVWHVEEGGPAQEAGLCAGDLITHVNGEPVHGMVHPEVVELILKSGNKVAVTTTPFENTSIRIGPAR
Assay: holdup assay
Set-up: key: below the threshold = too weak to quantify, mostly under pKd 3.1 to 4
Conditions: plain residues with an end cap or a label only (N-terminal biotin on a linker: ado-ado)

// below: answered binders
Task item: Report pKd for PLSPEQPTKL [TRIM50, Q86XT4]
Reply: 3.97

Task item: Report pKd for PRAEAEDSFL [PDGFRB, P09619]
Reply: 3.93

Here's the next entry for you.
Task item: Report pKd for QSPANIYYKV [EFNB1, P52799]
Reply: 3.93
